For each of the molecules below, state its IC50.
# TEST TARGET: human endothelial constitutive NOS (eNOS) (Homo sapiens (Human))
# ASSAY DETAILS: Human eNOS enzyme assay, radiometric
# CONDITION: read-out: eNOSh; Table I; human NOS; dihydrochloride or monohydrochloride salts
Answer format reminder: number followed by unit.

CN1CCC[C@@H]1Cc1c[nH]c2ccc(NC(=N)c3ccco3)cc12 [Compound 106]: 27.1 µM
CN1CC=C(c2c[nH]c3ccc(NC(=N)c4ccco4)cc23)CC1 [Compound 46]: 54 µM
CN1CCC[C@@H]1Cc1c[nH]c2ccc(NC(=N)c3cccs3)cc12 [Compound 97]: 34.5 µM

Take each entry in turn and give its IC50.
1. CN(C)CCc1c[nH]c2ccc(NC(=N)c3cccs3)cc12 [Compound 18]
2. CN1CCC(c2c[nH]c3ccc(NC(=N)c4cccs4)cc23)CC1 [Compound 43]
3. CN1CC=C(c2c[nH]c3ccc(CNC(=N)c4cccs4)cc23)CC1 [Compound 51]
4. CN(C)CCCc1c[nH]c2ccc(NC(=N)c3cccs3)cc12 [Compound 56]
5. CN1CC=C(c2c[nH]c3ccc(NC(=S)NC(=O)c4ccccc4)cc23)CC1 [Compound 64]
6. CN1CC=C(c2c[nH]c3ccc(NC(=N)c4cccs4)cc23)C(F)C1 (stereo not drawn) [Compound 134]

Result:
["26 µM", "32.6 µM", "49.7 µM", "15.1 µM", "43 µM", "143 µM"]

====

# TEST TARGET: human endothelial constitutive NOS (eNOS) (Homo sapiens (Human))
# ASSAY DETAILS: Human eNOS enzyme assay, radiometric
# CONDITION: read-out: eNOSh; Table II; human NOS; dihydrochloride or monohydrochloride salts
For each of the compounds below, state its pIC50.
Answers are plain numbers, as −log10 of the molar value.

CNCCCn1ccc2ccc(NC(=N)c3cccs3)cc21 [Compound 161]: 5.00
CN1CCCC(n2ccc3ccc(NC(=N)c4cccs4)cc32)CC1 (centres unmarked) [Compound 156]: 4.43
N=C(Nc1ccc2ccn(CCCN3CCOCC3)c2c1)c1ccoc1 [Compound 184]: 4.72

Take each entry in turn and give its pIC50.
1. N=C(Nc1ccc2ccn(CCCCn3ccnc3)c2c1)c1cccs1 [Compound 168]
2. CN1CCCC1CCn1c(Cc2ccccc2)cc2ccc(NC(=N)c3cccs3)cc21 (centres unmarked) [Compound 162]

Result:
1. 5.60
2. 4.48

====

# TEST TARGET: human endothelial constitutive NOS (eNOS) (Homo sapiens (Human))
# ASSAY DETAILS: Human eNOS enzyme assay, radiometric;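 note: recombinant human eNOS expressed in baculovirus-infected Sf9 cells, activity read as [3H]L-arginine turned into [3H]L-citrulline, the product isolated on ion-exchange resin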
# CONDITION: read-out: eNOSh; Table I; human NOS; dihydrochloride or monohydrochloride salts
VALUE KIND: pIC50
Answers are plain numbers, as −log10 of the molar value.

Would you please look over these solved cases?
CCSC(=N)Nc1ccc2[nH]cc(C3=CCN(C)CC3)c2c1: 3.98
CN1CCC[C@H]1Cc1c[nH]c2ccc(NC(=N)c3cccs3)cc12: 4.64
N=C(Nc1ccc2[nH]cc(C3CCN(C(=O)c4ccccc4)CC3)c2c1)c1cccs1: 4.29

Take each entry in turn and give its pIC50.
1. CN1CCC(c2c[nH]c3ccc(NC(=N)c4ccco4)cc23)CC1
2. CN1CC=C(c2c[nH]c3ccc(NC(=N)c4cccs4)cc23)CC1
3. CN1CCC[C@H]1Cc1c[nH]c2ccc(NC(=N)c3ccco3)cc12

Result:
1: 4.01; 2: 4.29; 3: 4.60

These entries and their values trace back to patent US8586620B2.
